- Tested on: Escherichia coli TOP10
- Method summary: shrunken log2 fold change of peptide-encoding DNA abundance (4.5 h post-induction vs induction); higher = less antimicrobial activity (less host growth inhibition)
- Test conditions: time post-induction: 4.5 h; library: site-saturation at positions 5, 18, 19, 20
Attribute: shrunken log2 fold change
Give your answer as a number; write no unit.

Example entries begin here.
| Sequence | Assay system | shrunken log2 fold change |
| --- | --- | --- |
| RRIRIRPPRLPRPRPRPRTMPRP | Escherichia coli TOP10 | -0.377 |
| RRIRERPPRLPRPRPRPISTPRP | Escherichia coli TOP10 | -0.346 |

# input Could you share which shrunken log2 fold change value was measured for RRIRNRPPRLPRPRPRPMNMPRP ?
# output -0.356

====

- System: Escherichia coli TOP10
- Method summary: shrunken log2 fold change of peptide-encoding DNA abundance (4.5 h post-induction vs induction); higher = less antimicrobial activity (less host growth inhibition)
- Test conditions: time post-induction: 4.5 h; library: site-saturation at positions 5, 18, 19, 20
shrunken log2 fold change: recorded values
Enter the number alone.

Worked set:
| Sequence | Result |
| --- | --- |
| RRIRCRPPRLPRPRPRPNEGPRP | -0.1 |
| RRIRSRPPRLPRPRPRPDSDPRP | 0.051 |
| RRIRWRPPRLPRPRPRPHIVPRP | -0.102 |

# input Which shrunken log2 fold change is reported for this sequence? RRIRWRPPRLPRPRPRPNDEPRP
# output 0.0507

====

Parameter: shrunken log2 fold change. Scope: all listed entries.
- Tested on: Escherichia coli TOP10
- Method summary: shrunken log2 fold change of peptide-encoding DNA abundance (4.5 h post-induction vs induction); higher = less antimicrobial activity (less host growth inhibition)
- Test conditions: time post-induction: 4.5 h; library: site-saturation at positions 5, 18, 19, 20
Keep the answer to the number alone.

| Sequence | shrunken log2 fold change |
| --- | --- |
| RRIRIRPPRLPRPRPRPRKHPRP | -0.252 |
| RRIRGRPPRLPRPRPRPAKFPRP | 0.549 |
| RRIRFRPPRLPRPRPRPNIQPRP | -0.973 |

# input Item RRIRPRPPRLPRPRPRPCSRPRP with Escherichia coli TOP10 - shrunken log2 fold change?
# output 0.0759

# input Provide value of shrunken log2 fold change for this record tested with Escherichia coli TOP10: RRIRFRPPRLPRPRPRPPQAPRP
# output 0.558

# input Request - read-out shrunken log2 fold change | tested on Escherichia coli TOP10 | sequence RRIRVRPPRLPRPRPRPNHQPRP
# output -0.221

====

- System: Escherichia coli TOP10;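 also: peptides expressed intracellularly from a pBAD plasmid library in pooled LB shake-flask culture, induced with 0.3% L-arabinose, DNA abundance read by NGS, three biological replicates, DESeq2 with apeglm shrinkage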
- Method summary: shrunken log2 fold change of peptide-encoding DNA abundance (4.5 h post-induction vs induction); higher = less antimicrobial activity (less host growth inhibition)
- Test conditions: time post-induction: 4.5 h; library: site-saturation at positions 5, 18, 19, 20
Endpoint label: shrunken log2 fold change
Provide a numeric answer; units are not to be included.

These recorded examples may help you get a feel for the data.
| Sequence | Result |
| --- | --- |
| RRIRSRPPRLPRPRPRPMFKPRP | -0.407 |
| RRIRHRPPRLPRPRPRPFWEPRP | -0.218 |

For the next question, use this sequence.
# input If you can, please state the reported shrunken log2 fold change value of RRIRKRPPRLPRPRPRPPNIPRP .
# output -1.03
